- Target Desc: Solute carrier family 2, facilitated glucose transporter member 1 (Homo sapiens)
- Experiment Description: ST_JUDE_LEISH: Cytotoxicity at 2uM final concentration against transgenic Leishmania Mexicana promastigotes LmGLUT1 that are glucose transport deficient and complemented with the human glucose transporter GLUT1. Activity is measured by DNA content using SYBR green in vitro
- Format: functional
inhibition overview
Report only the number, with the unit % understood.

Answered examples (8):
CC(C)COc1ccc(Cl)cc1Cc1nc(-c2nc3cccc(CN4CCN(C)CC4)c3[nH]2)cs1 ... 0.6
S=c1nc(-c2ccccc2)n2ccsc2n1 ... 1.86
Cc1ccc(C)c(NC(=O)NCCNc2ccnc(Nc3ccc(F)cc3)n2)c1 ... 17
C[C@H](NC(=O)c1c(CN2CCC(NC(=O)CC(C)(C)C)CC2)c(-c2cccs2)nc2ccccc12)C1CCCCC1 ... 2.07
COc1ccc2[nH]ccc(=NN=Cc3ccncc3)c2c1 ... 3.57
O=C(Cc1ccsc1)NCC(c1ccccc1Cl)c1c[nH]c2ccccc12 (stereo not given) ... 6.27
CN1CCC(C(=O)N(Cc2ccc(-c3ccc(CNCCc4ccc(S(C)(=O)=O)cc4)cn3)cc2)C2CCN(Cc3ccccc3)CC2)CC1 ... 3.07
COCCNC(=O)C1CCN(C(c2ccc(Cl)cc2)c2ccc(Cl)cc2)CC1 ... 7.23

Inquiry: Data request, read-out inhibition, for `Cc1nn(-c2ccnc3cc(Cl)ccc23)c(C)c1C(=O)NCc1cc(Cl)cc(Cl)c1`
Reply text: 0.16

Inquiry: Data request, read-out inhibition, for `COc1cc(NCC2(CNCc3cn(Cc4ccccc4)c4ccccc34)CCCCC2)nc2ccccc12`
Reply text: -0.66

Inquiry: Data request, read-out inhibition, for `COc1cc(Cc2cnc(N)nc2N)cc(OCCNC(=O)OCc2ccccc2)c1OC`
Reply text: -1.11

Inquiry: Data request, read-out inhibition, for `CCC(CC)N1CCN(CC(=O)Nc2ccc([N+](=O)[O-])cc2C(=O)Nc2cccc(OC)c2)CC1`
Reply text: 3.1

Inquiry: Data request, read-out inhibition, for `CCOc1cc(C(=O)N[C@@H](Cc2ccccc2)[C@H](O)CNC(C)(C)c2cccc(OC)c2)cc(N2CCCS2(=O)=O)c1`
Reply text: 2.48

Inquiry: Data request, read-out inhibition, for `CCN(CC)C(C)(C)CN(Cc1ccc(-c2ccc(C(F)(F)F)cc2)cc1)C(=O)Cn1c(CCc2cccc(F)c2F)nc(=O)c2ccccc21`
Reply text: 6.6

Inquiry: Data request, read-out inhibition, for `Cc1cccc(CNc2nccc3[nH]c4ccccc4c23)c1`
Reply text: 4.82

###

- Target Desc: Hexose transporter 1 (Plasmodium falciparum) (UniProt O97467)
- Experiment Description: ST_JUDE_LEISH: Cytotoxicity at 2uM final concentration against transgenic Leishmania Mexicana promastigotes LmPfHT that are glucose transport deficient and complemented with the Plasmodium falciparum hexose transporter. Activity is measured by DNA content using SYBR green in vitro
- Format: functional
Binning rule for recorded inhibition: low: < 2%; mid: ≥ 2% and < 5%; high: ≥ 5%

Inquiry: Just checking, what class would you give `CC[C@H](C)[C@@H](C(=O)N1CCOCC1)N1CC[C@H](NS(=O)(=O)CC(C)(C)c2ccc(Cl)cc2)C1=O` here?
Reply text: low

Inquiry: Just checking, what class would you give `COc1ccc2nc(C)cc(N/N=C/c3ccc([N+](=O)[O-])o3)c2c1` here?
Reply text: high

Inquiry: Just checking, what class would you give `CC(=O)Nc1nc(C(=O)Nc2cccc(-c3ccc(-c4nc5ccccc5[nH]4)cc3)c2)cs1` here?
Reply text: high

###

- Target Desc: Solute carrier family 2, facilitated glucose transporter member 1 (Homo sapiens) (UniProt P11166)
- Sequence (P11166 whole entry): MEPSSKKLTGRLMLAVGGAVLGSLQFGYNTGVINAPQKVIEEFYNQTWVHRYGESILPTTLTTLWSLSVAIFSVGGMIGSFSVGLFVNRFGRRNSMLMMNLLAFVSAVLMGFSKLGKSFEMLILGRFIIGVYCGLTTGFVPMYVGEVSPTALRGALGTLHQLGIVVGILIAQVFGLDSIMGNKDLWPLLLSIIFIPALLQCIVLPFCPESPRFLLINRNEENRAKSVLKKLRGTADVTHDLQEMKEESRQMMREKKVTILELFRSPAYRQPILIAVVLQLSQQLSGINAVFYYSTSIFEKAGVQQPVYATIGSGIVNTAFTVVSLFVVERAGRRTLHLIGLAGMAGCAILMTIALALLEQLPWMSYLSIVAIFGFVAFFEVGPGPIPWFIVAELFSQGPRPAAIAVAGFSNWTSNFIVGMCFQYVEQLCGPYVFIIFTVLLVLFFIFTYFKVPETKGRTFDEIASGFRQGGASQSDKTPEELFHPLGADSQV
- Experiment Description: ST_JUDE_LEISH: Cytotoxicity at 2uM final concentration against transgenic Leishmania Mexicana promastigotes LmGLUT1 that are glucose transport deficient and complemented with the human glucose transporter GLUT1. Activity is measured by DNA content using SYBR green in vitro
- Format: functional
inhibition overview
Report only the number, with the unit % understood.

Answered examples (3):
CN(C)CCNC(=O)c1cc2c(-c3ccc(Cl)cc3)nn(C)c2s1 ... 2.62
CCNC(=O)N[C@@H]1CN[C@@H](C#Cc2cc3c(Nc4ccc(OCc5cccc(F)c5)c(Cl)c4)ncnc3s2)C1 ... -0.84
CCN(Cc1cccc2ccccc12)c1ccc2nc(N)nc(N)c2c1 ... 97.2

Inquiry: Data request, read-out inhibition, for `O=[N+]([O-])c1cccc(CNC2CCN(Cc3ccc(-c4ccccc4)cc3)CC2)c1`
Reply text: 1.94

###

- Target Desc: Hexose transporter 1 (Plasmodium falciparum) (UniProt O97467)
- Experiment Description: ST_JUDE_LEISH: Cytotoxicity at 2uM final concentration against transgenic Leishmania Mexicana promastigotes LmPfHT that are glucose transport deficient and complemented with the Plasmodium falciparum hexose transporter. Activity is measured by DNA content using SYBR green in vitro
- Type: functional
Value Type: inhibition (%)
Report only the number, with the unit % understood.

Answered examples (3):
CN(C)CCC1CCCc2ccc(NC(=O)Nc3ccc(-c4ccncc4)c4ccccc34)cc21 (centres undefined) ... 1.03
CC(=O)Nc1ccc(CN2CCC(NC(=O)c3cc(-c4ccc(N(C)C)cc4)cs3)C2)cc1 (centres undefined) ... 3.72
CC(C)CNCc1cccc(-c2ccc(CN(CCCN3CCN(C)CC3)C(=O)CCC3CCCC3)cc2)c1 ... 56.9

Please examine the following record next.
Inquiry: Data request, read-out inhibition, for `CN1CCC(NCc2ccc(-c3ccc(S(=O)(=O)NCc4ccccc4)s3)cc2)CC1`
Reply text: 6.78

###

- Target Desc: Glucose transporter (Leishmania mexicana)
- Experiment Description: ST_JUDE_LEISH: Cytotoxicity at 2uM final concentration against transgenic Leishmania Mexicana promastigotes LmGT2 that are glucose transport deficient and complemented with the L. Mexicana glucose transporter 2. Activity is measured by DNA content using SYBR green in vitro
- Assay type: functional
Value Type: inhibition (%)
Report only the number, with the unit % understood.

Answered examples (4):
O=C(Nc1cccc(-c2nn3ncccc3c2-c2ccnc(Nc3cccc(C(F)(F)F)c3)n2)c1)c1c(F)cccc1F ... -0.92
CCCCCCCCc1c(C)nc(C)c(Br)c1O ... -0.12
Cc1cc(N)nc2ccc(-c3ccc(CN)cc3)cc12 ... 4.15
O=C(NCc1ccccc1F)c1ccc(N2CCC(NCc3cccc(-n4cccn4)c3)CC2)cc1 ... -1.93

Inquiry: Data request, read-out inhibition, for `O=S(=O)(Nc1ccc(CCN2CCC(N3CCCCC3)CC2)cc1)c1cccc2cccnc12`
Reply text: 1.88

Inquiry: Data request, read-out inhibition, for `CC(C)OC(=O)c1ccccc1S(N)(=O)=O`
Reply text: 7.97

Inquiry: Data request, read-out inhibition, for `O=C(N[C@@H](Cc1ccccc1)[C@H](O)CNC1CCOCC1)c1cc(C2CCCC2)cc(N2CCCCS2(=O)=O)c1`
Reply text: 4.01

Inquiry: Data request, read-out inhibition, for CC(Cc1ccc(C(=O)OC(c2ccccc2)c2ccccc2)cc1)NCC(O)c1ccccc1 (configuration not stated)
Reply text: -0.61

Inquiry: Data request, read-out inhibition, for `O=C(Nc1ccc(-c2cccc(-c3nc4cc(C(F)(F)F)ccc4[nH]3)c2)cc1)c1ccc(=O)[nH]n1`
Reply text: 2.97

###

inhibition overview
- Target Desc: Solute carrier family 2, facilitated glucose transporter member 1 (Homo sapiens) (UniProt P11166)
- Experiment Description: ST_JUDE_LEISH: Cytotoxicity at 2uM final concentration against transgenic Leishmania Mexicana promastigotes LmGLUT1 that are glucose transport deficient and complemented with the human glucose transporter GLUT1. Activity is measured by DNA content using SYBR green in vitro
- Assay type: functional
Report only the number, with the unit % understood.

O=C(NCc1ccc(F)cc1)Nc1ccc(-c2ccc(-c3nc4ccccc4[nH]3)cc2)cc1 ... 1.28
CC(C)Oc1cc(-c2ccc(S(C)(=O)=O)cc2)nc(N(Cc2cccc(F)c2F)Cc2cccc(F)c2F)n1 ... -1.85
CCC(CSC1CCCCC1)N(C)CCN(C)C(CC)CSC1CCCCC1 (stereo unspecified) ... 7.39

Inquiry: Data request, read-out inhibition, for NCC1CCCN1Cc1cccc(-c2cccc(-c3nc4cc(F)ccc4[nH]3)c2)c1 (stereo unspecified)
Reply text: 0.19

Inquiry: Data request, read-out inhibition, for `COc1cccc(C2CCN(CCN3CCC(CNC(=O)c4ccc(-c5ccc(C(F)(F)F)cc5)cc4)CC3)CC2)c1`
Reply text: -0.53

###

- Target Desc: Solute carrier family 2, facilitated glucose transporter member 1 (Homo sapiens)
- Experiment Description: ST_JUDE_LEISH: Cytotoxicity at 2uM final concentration against transgenic Leishmania Mexicana promastigotes LmGLUT1 that are glucose transport deficient and complemented with the human glucose transporter GLUT1. Activity is measured by DNA content using SYBR green in vitro
- Format: functional
inhibition overview
Report only the number, with the unit % understood.

Answered examples (7):
CC1(C)N=C(N)N=C(N)N1c1ccc(Br)cc1 ... 0.61
FC(F)(F)c1cc(C(F)(F)F)c2cc(CNCCCNc3nc4ccccc4[nH]3)[nH]c2c1 ... -1.02
COc1ccc(CCN(C)CCOc2ccc(NC(=O)c3cccc4c(=O)c5cc(SC)ccc5[nH]c34)cc2)cc1OC ... 9.29
CC1CCN(c2nc(C(=O)NCCc3ccc(Cl)c(Cl)c3)c(C(C)C)s2)CC1 ... 0.93
CC(C)CC(=O)N1CCNC[C@@H]1C(=O)NCc1ccc(Cl)c(Cl)c1 ... 2.93
COCCNCC(O)Cn1c2ccc(Cl)cc2c2cc(Cl)ccc21 (stereo not drawn) ... -1.12
Cc1nc(NC(=N)N)nc2cc3c(cc12)CCC3 ... 0.91

Inquiry: Data request, read-out inhibition, for `CN1CCN(Cc2ccc(-c3ccc4c(Nc5ccc(F)cc5Cl)ccnc4c3)o2)CC1`
Reply text: 0.53
